# targetOrSystem: T1, human CD24 on cells (human, UniProt P25063 27-59)
# T1 chain (looked up): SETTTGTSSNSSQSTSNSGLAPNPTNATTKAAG
# assayProcedure: cell-based or functional assay
A collection of binders and their measured EC50 of Phagocytosis assay, IgG4, Kappa; MCF-7
Express the result in µg/mL but write the number alone.

Completed entries (count: 3):
*Q* GET /values?readout=EC50 of Phagocytosis assay, IgG4, Kappa; MCF-7&item= 80-F10A6, IgG4, Kappa (antibody, V domains shown) VH: EVQLQQSGPVLVNPGASVKISCKASGYSFTGYYMNWVKQSPEKSLEWIGEVNPITGDTTYSQNFKAKTTLTVDRSSSTAYMQLKSLTSEDSAVYYCTRRDYGTSLDYWGQGTTLTVSS VL: DVQITQSPSYLAASPGETITIHCRASKSISRYLAWYQEKPGKINTLLIYAGSTLHLGIPSRFSGSGSGTDFTLTISSLELEDFAMYYCQQHNEYPITFGAGTKLELK
*A* 2.4

*Q* What about 89-E8C12 (4428), IgG4, Kappa (antibody, V domains shown) VH: EVQLQQSGPELVKPGASVKISCKASGYDFTGYYMNWMKQSPEKSLEWIGEINPITSHNTFNQKFKAKATLTVDRSSSTAYMHLKSLTSEDSAVYYCARRDYGTSLDYWGQGTTLTVSS VL: DVQITQSPSYLAASPGETITIYCRASKSISKYLAWYQEKPEKTIRLLIYAGSTLQSGIPSRFRGSGSGTDFTLTVSGLEPEDFAMYYCQQHNEYPLTFGAGTKLELK ?
*A* 0.96

*Q* Then this binder: 90-D11B6, IgG4, Kappa (antibody, V domains shown) VH: EVQLQQSGPELVKPGASVRISCKASGYSFTGYYMNWVKQSPEKNLEWIGEINPITGGSTYNQKFVAKATLTVDRSSSTAYMQLKSLTSEDSAVYYCTRRDYDTSLDYWGQGTTLTVSS VL: DVQITQSPSYLAASPGETITINCRASKSISKYLAWYQEKPGKTIKLLIYAGSTLQSGIPSRFSGSGYGTDFTLTISSLEPEDFAMYYCQQHNEYPLTFGAGTKLELK
*A* 1.94

Attention now shifts to the item below.
*Q* May I ask what EC50 of Phagocytosis assay, IgG4, Kappa; MCF-7 has been recorded for 79-E3H3, IgG4, Kappa (antibody, V domains shown) VH: EVQLQQSGPELVKPGASVKISCKASGYEFTGYHMNWVKQSPEKSLEWIGEINPITSDKTFNQKFKAKATLTVDRSSSTAYMHLKSLTSEDSAVYYCARRDYDTSLDYWGQGTTLTVSS VL: DVQITQSPSYLAASPGETITIYCRASKSISKYLAWYQEKPEKTNRLLIYAGSTLQSGIPSRFRGSGSGKDFTLTVSGLEPEDFAMYYCQQHNEYPLTFGAGTKLELK ?
*A* 1.42
